B1: mRNA-splicing (parent)
chain: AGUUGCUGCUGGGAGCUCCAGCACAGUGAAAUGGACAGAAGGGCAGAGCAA

Variants of: B1
procedureSummary: exon inclusion enrichment index; higher = more inclusion; WT1 exon 5 minigene, HEK293
readoutKind: exon inclusion enrichment index
Could you keep your reply to the number by itself?

Look up exon inclusion enrichment index: AGUUGACGACCGGAGCUCCAGCACAGUGAAAUGGACAGAAGGGCAGAGCAA [C6A U7C C9A U10C G11C] 3.61

Look up exon inclusion enrichment index: AGUUAGGGAUGGGAGCUCCAGCACAGUGAAAUGGACAGAAGUUCAGAGCAA [G5A C6G U7G C9A G42U G43U] 0.00686

Look up exon inclusion enrichment index: AGUUCGCGCCGGGAGCUCCAGCACAGUGAAAUGGACCCAAGGGCAGAGCAA [G5C C6G U7C U10C A37C G38C] 2.99

Look up exon inclusion enrichment index: AGUUCACACAGGGAGCUCCAGCACACGGAAAUGGACAGAAGGGCAGAGCAA [G5C C6A U7C G8A U10A G26C U27G] 0.537

Look up exon inclusion enrichment index: AGUUACCACCGGGAGCUCCAGCACAGUGAAAUAAACAGAAGGGCAGAGCAA [G5A U7C G8A U10C G33A G34A] 0.398

Look up exon inclusion enrichment index: AGUUCGCGAGGGGAGCUCCAGCACAGUGAAAUGGACAGAAGGGCAGAGCAA [G5C C6G U7C C9A U10G] 1.77

Look up exon inclusion enrichment index: AGUUCUUCUCGGGAGCUCCAGCAACGUGAAAUGGACAGAAGGGCAGAGCAA [G5C C6U G8C C9U U10C C24A A25C] 3.4

Look up exon inclusion enrichment index: AGUUAGGGAUGGGAGCUCCAGCACAGUGAAAUGGCCAGAAGGGCAGAGCAA [G5A C6G U7G C9A A35C] 0.00244

Look up exon inclusion enrichment index: AGUUAGGGAUGGGAGCUCCAGCACAGUGAAAUGACCAGAAGGGCAGAGCAA [G5A C6G U7G C9A G34A A35C] 0.00134

Look up exon inclusion enrichment index: AGUUGAAGAAGGGAGCCUCAGCACAGUGAAAUGGACAGAAGGGCAGAGCAA [C6A U7A C9A U10A U17C C18U] 0.491

Look up exon inclusion enrichment index: AGUUCACACAGGGGCCUCCAGCACAGUGAAAUGGACAGAAGGGCAGAGCAA [G5C C6A U7C G8A U10A A14G G15C] 0.0391

Look up exon inclusion enrichment index: AGUUAUUCUCGGGAGCUCCAGCACAGUGAAAUGGACAGAAGGGCAGAGCAA [G5A C6U G8C C9U U10C] 0.807

Look up exon inclusion enrichment index: AGUUCUUCUCGGGAGCUCCAGCACAGUGAAAUGGACAGACUGGCAGAGCAA [G5C C6U G8C C9U U10C A40C G41U] 0.895

Look up exon inclusion enrichment index: AGUUGCCACAGGGAGCUCCAGCACAGUGAAAUGGACAGAAGGGCAGAGCAA [U7C G8A U10A] 0.437

Look up exon inclusion enrichment index: AGUUAUAUAUGGGAGCUCCAGCACAGUGAAAUGGACAGAAGGGCGCAGCAA [G5A C6U U7A G8U C9A A45G G46C] 0.131

Look up exon inclusion enrichment index: AGUUAUAUAUGGGAGCUCCAGCACAGUGAAAUGGACGUAAGGGCAGAGCAA [G5A C6U U7A G8U C9A A37G G38U] 0.0165

Look up exon inclusion enrichment index: AGUUGACGACGGGAGCGGCAGCACAGUGAAAUGGACAGAAGGGCAGAGCAA [C6A U7C C9A U10C U17G C18G] 2.57

Look up exon inclusion enrichment index: AGUUGACGACGGGAGCUCCAGCACAGUGAAAUGGACAGAAGGGGCGAGCAA [C6A U7C C9A U10C C44G A45C] 4.25

Look up exon inclusion enrichment index: AGUUCUUCUCGGGAGUCCCAGCACAGUGAAAUGGACAGAAGGGCAGAGCAA [G5C C6U G8C C9U U10C C16U U17C] 1.08

Look up exon inclusion enrichment index: AGUUAGGGAUGGGAGCUCCAGCACAGUGAAAUGGACAGAAGGGCAGGCCAA [G5A C6G U7G C9A A47G G48C] 0.000801

Look up exon inclusion enrichment index: AGUUAGGGAUGGGAGCUCCAGCACAGUGAAAUGGAUCGAAGGGCAGAGCAA [G5A C6G U7G C9A C36U A37C] 0.000996

Look up exon inclusion enrichment index: AGUUAGGGAUGGGAGCUCCAGCACAGUGAAAUGUUCAGAAGGGCAGAGCAA [G5A C6G U7G C9A G34U A35U] 0.00101

Look up exon inclusion enrichment index: AGUUCGCGCCGGGAGCUCACGCACAGUGAAAUGGACAGAAGGGCAGAGCAA [G5C C6G U7C U10C C19A A20C] 2.85

Look up exon inclusion enrichment index: AGUUCUUCUCGGGAGCUCCAGCACAGUGAAAUCAACAGAAGGGCAGAGCAA [G5C C6U G8C C9U U10C G33C G34A] 1.24

Look up exon inclusion enrichment index: AGUUCACACAGGGAGCUCCAGCACAGUGAAAUGGACAGAAGGGCACUGCAA [G5C C6A U7C G8A U10A G46C A47U] 0.141

Look up exon inclusion enrichment index: AGUUCACACAGGGAGCUCCAGCACAGUACAAUGGACAGAAGGGCAGAGCAA [G5C C6A U7C G8A U10A G28A A29C] 0.0469

Look up exon inclusion enrichment index: AGUUGAAGAAGGGAGCUCCAGCACAGUGAAAAGGACAGAAGGGCAGAGCAA [C6A U7A C9A U10A U32A] 0.442

Look up exon inclusion enrichment index: AGUUCACACAGGGAGCUCCAGCACGAUGAAAUGGACAGAAGGGCAGAGCAA [G5C C6A U7C G8A U10A A25G G26A] 0.663

Look up exon inclusion enrichment index: AGUUAUAUAUGGGAGCUCCAGCACAGUGAAAUGGACAGAAGGUGAGAGCAA [G5A C6U U7A G8U C9A G43U C44G] 0.073

Look up exon inclusion enrichment index: AGUUAGGGAUGGGCUCUCCAGCACAGUGAAAUGGACAGAAGGGCAGAGCAA [G5A C6G U7G C9A A14C G15U] 0.000655

Look up exon inclusion enrichment index: AGUUGACGGUGGGAGCUCCAGCACAGUGAAAUGGACAGAAGGGCAGAGCAA [C6A U7C C9G] 1.05

Look up exon inclusion enrichment index: AGUUGACGACGGGAGCUCCAGCACAGUGAAAUGGACAGGCGGGCAGAGCAA [C6A U7C C9A U10C A39G A40C] 3.81

Look up exon inclusion enrichment index: AGUUGAAGAAGGGAGCUCCAGCACAGUUCAAUGGACAGAAGGGCAGAGCAA [C6A U7A C9A U10A G28U A29C] 0.539

Look up exon inclusion enrichment index: AGUUACCACCGGGAGCUCCAGCACAGUGAAAUGGACAGAAGGGCAAGGCAA [G5A U7C G8A U10C G46A A47G] 0.953

Look up exon inclusion enrichment index: AGUUGACGACGGGAGCUCCAGCACAGUGAAAUGGAGCGAAGGGCAGAGCAA [C6A U7C C9A U10C C36G A37C] 1.56

Look up exon inclusion enrichment index: AGUUCACACAGGGAAUUCCAGCACAGUGAAAUGGACAGAAGGGCAGAGCAA [G5C C6A U7C G8A U10A G15A C16U] 0.0227

Look up exon inclusion enrichment index: AGUUAGGGAUGGGAGCUCCAGCACAGUGAAAUGGAAAGAAGGGCAGAGCAA [G5A C6G U7G C9A C36A] 0.000983

Look up exon inclusion enrichment index: AGUUUCUUUUGGGAGCUCCAGCACCCUGAAAUGGACAGAAGGGCAGAGCAA [G5U G8U C9U A25C G26C] 0.215

Look up exon inclusion enrichment index: AGUUGAAGAAGGGAGCUCCAGCACAGUGAAAGUGACAGAAGGGCAGAGCAA [C6A U7A C9A U10A U32G G33U] 0.178

Look up exon inclusion enrichment index: AGUUCAAGCAGGGAGCUCCAGCACAGUGAAAUGGACAGAAGGGCAGAGCAA [G5C C6A U7A U10A] 0.407

Look up exon inclusion enrichment index: AGUUGAAGAAGCCAGCUCCAGCACAGUGAAAUGGACAGAAGGGCAGAGCAA [C6A U7A C9A U10A G12C G13C] 1.06

Look up exon inclusion enrichment index: AGUUUCUUUUGGGAGCUCCAGCACAGUCUAAUGGACAGAAGGGCAGAGCAA [G5U G8U C9U G28C A29U] 0.0407

Look up exon inclusion enrichment index: AGUUCUUCUCGGGAGCUCCAGCACAGUGUCAUGGACAGAAGGGCAGAGCAA [G5C C6U G8C C9U U10C A29U A30C] 1.51

Look up exon inclusion enrichment index: AGUUAGGGAUGGGAGCUCCAGCACAGUGAAGCGGACAGAAGGGCAGAGCAA [G5A C6G U7G C9A A31G U32C] 0.00508

Look up exon inclusion enrichment index: AGUUGCUGCUGGGAGCUCCAGCACAGUGAAAUGGACACCAGGGCAGAGCAA [G38C A39C] 0.158

Look up exon inclusion enrichment index: AGUUCACACAGGGAGCUCCAGCACAGUGAAAUGGACAGAAGGGCAUAGCAA [G5C C6A U7C G8A U10A G46U] 0.0644
